- Study Target: Bromodomain-containing protein 4 (Homo sapiens, UniProt O60885)
- Assay Remarks: Alphascreen Binding Assay: Binding of compounds of formula (I) with bromodomain 2, 3 4 was assessed using Alphascreen binding assay. The inhibition of the interaction between bromodomain and its acetylated target protein (Filippakopoulos P et al. 2012) was measured quantitatively using recombinant BRD proteins, an acetylated Histone 4 peptide and AlphaScreen technology. In absence of inhibition the BRD protein bound to AlphaScreen nickel chelate acceptor beads can interact with the acetylated Histone 4 peptide which is immobilized by the AlphaScreen Streptavidin coated beads. This interaction brings donor and acceptor beads in proximity. The close proximity allows the singlet oxygen produced by laser excitation of the donor beads to reach the acceptor beads and generate a luminescence signal. BRD inhibitors result in a decrease in the proximity signal through an inhibition of the BRD-acetylated peptide interaction.Recombinant human bromodomains containing the N-terminal bromodomain (BRD2-BD1 (71-194), BRD3-BD1 (24-144) and BRD4-BD1 (44-164)) or dual bromodomains (BRD4-BD12 (1-477), BRD4-BD12 (1-472)) were prepared and purified as described in protein expression and purification session.
Measured Metric: IC50

Input line: What does the data say about its IC50? Entry: Cc1noc(C)c1-c1cnc2c(c1)c(CC1CCN(S(=O)(=O)c3ccccc3)CC1)cn2C
Output line: < 1 µM

These measurements were taken from ChEMBL document CHEMBL5727461.
